The reported measurements were obtained from patent US20220144922A1.

TESTED_SYSTEM: RSV F protein of subtype A strain A2, on virus (respiratory syncytial virus subtype A …, UniProt P03420 26-574)
TEST_METHOD_NOTES: cell-based or functional assay
ASSAY_ENDPOINT: Neut IC50 (ug/ml) subtype A

Neut IC50 (ug/ml) subtype A recorded for this binder, ADI-15657 (antibody, V domains shown) VH: QVQLVQSGTEVKKPGSSVKVSCKASGGTFSSYAISWVRQAPGQGLEWMGGIHPTSGPANYAQKFQDRVTITVDKSTSTVYMDLSSLRSEDTAVYYCARVGVGRTWIYDTMGYLDFWGQGTLVTVSS VL: EIVMTQSPATLSLSPGERATLSCRASQSVSDYLAWYQQKPGQAPRLLIYDASNRATGIPARFSGSGSGTDFTLTITSLEPEDFAVYYCQHRSDWPSLTFGGGTKLEIK , is > 10 µg/mL

The binder listed as ADI-15630 (antibody, V domains shown) VH: QVQLVQSGGGLVKPGGSLRLSCAASGFIFSDYYMVWIRQAPGKGLEWVSYISSSSRYINYADSVKGRFTISRDNAKNSLFLQMNTVRAEDTAVYYCAQGWYSDFWSGPIRIWGQGTLVTVSS VL: DIQLTQSPSSLSASVGDRVTITCQASQDISNSLNWFQQKPGKAPKLLIFDAYNLETGVPSRFSGSGSGTDFTLTISSLQPEDIATYYCQQNDNLVLTFGGGTKLEIK has a reported Neut IC50 (ug/ml) subtype A of > 10 µg/mL

Measured Neut IC50 (ug/ml) subtype A, ADI-15648 (antibody, V domains shown, IgG; also called Antibody Number 212) VH: EVQLVESGGGLVKPGGSLRLSCAASGFTISGYNMFWVRQPPGKGLEWVSSITAGSSYLNYADSVKGRFIVSRDNAKNSLYLQMNSLRAEDTAVYFCARAPLLPAMMDLWGQGTTVTVSS VL: QSVVTQPPSVSGAPGQRVTISCTGSSSNIGAGYDVHWYQQLPGTAPKLLIYTNNNRPSGVPDRFSGSKSGTSASLAITGLQAEDEADYYCQSYDRSLNGYVFGTGTTVTVL : 0.064 µg/mL
